Ref: patent US8957017B2

# PROCEDURE_SUMMARY: Stability in buffer at various pH values
# Assay type: physicochemical
# REPORTED_CONDITIONS: pH 7.4, 37° C., 24 h
Structures can show the parent of a compound that is named as a salt.
ENDPOINT_NAME: % test substance after 24 h [F(t = 24 h) × 100/F(t = 0 h)] (%)

• N#Cc1c(N)nc(SCc2csc(-c3ccc(Cl)cc3)n2)c(C#N)c1-c1ccc(OCCOC(=O)[C@@H](N)CCC(=O)NCCN)cc1 [Example 7, dihydrochloride] = 2

A: C[C@@H](NC(=O)[C@@H](N)CCCCN)C(=O)OCCOc1ccc(-c2c(C#N)c(N)nc(SCc3csc(-c4ccc(Cl)cc4)n3)c2C#N)cc1 [Example 12, dihydrochloride]
B: CC(C)[C@H](NC(=O)[C@@H](N)CCCNC(=N)N)C(=O)OCCOc1ccc(-c2c(C#N)c(N)nc(SCc3csc(-c4ccc(Cl)cc4)n3)c2C#N)cc1 [Example 3, dihydrochloride]
Query: I would appreciate it if you could say which entry, A or B , has the lower % test substance after 24 h [F(t = 24 h) × 100/F(t = 0 h)] value. Field: selected label. Fill in the label of the entry you choose.
Result: A
